Test system: PDC KRAS tumor spheroids with HUVEC/MSC, viability
Assay: Anticancer human tumor 349418-098-R-PDC patient-derived lung adenocarcinoma cell line growth inhibition [KRAS2]; active = viability on the fitted dose curve at most 10% of control; inactive = the rest
Settings: second compound 0.1 µM; first compound 1 µM
Description: Multicellular complex tumor spheroid response to RAS pathway inhibitors in combination with a targeted agents in patient-derived cell lines with oncogenic KRAS variants from multiple cancer types A high-throughput screen of multi-cell type tumor spheroids was designed to identify active combinations of targeted small molecules and KRAS pathway inhibitors. […] Compounds. […] If the clinical Cmax for an agent had not been determined, the highest concentration tested was 10 microM. […]
Field 'call' accepts label 1 = active, label 0 = inactive

# count of solved cases: 2
{"MOLECULE": "CC1OCC2(CCN(c3cnc(Sc4ccnc(N)c4Cl)c(N)n3)CC2)C1N (stereo not drawn) + C=CC(=O)N1CCN(c2nc(=O)n(-c3c(C)ccnc3C(C)C)c3nc(-c4c(O)cccc4F)c(F)cc23)C(C)C1", "GROUP_LABEL": "label 0"}
{"MOLECULE": "Cn1nccc1Nc1nccc(-c2cc3c(s2)C(C)(C)N(CCN2CCOCC2)C3=O)n1 + C=CC(=O)N1CCN(c2nc(OCC3CCCN3C)nc3c2CCN(c2cccc4cccc(C)c24)C3)CC1CC#N", "GROUP_LABEL": "label 0"}

Could you now look at the following molecule, please?
Q: Which outcome was entered for the molecule Cn1nccc1Nc1nccc(-c2cc3c(s2)C(C)(C)N(CCN2CCOCC2)C3=O)n1 + CC1OCC2(CCN(c3cnc(Sc4ccnc(N)c4Cl)c(N)n3)CC2)C1N in this test?
A: label 1

----------
test system: PDC KRAS tumor spheroids with HUVEC/MSC, viability; test: Anticancer human tumor 349418-098-R-PDC cell line growth inhibition [KRAS2]; conditions: second compound 0.1 µM; first compound 1 µM; active = viability on the fitted dose curve at most 10% of control; inactive = the rest;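 note: spheroids exposed to compounds for seven days before readout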
Field 'call' accepts active, inactive

# count of solved cases: 4
{"COMPOUND": "CC1COCCN1c1cc(-c2ccnn2C)c2ccnc(-c3ccn[nH]3)c2n1 (stereo not given) + CC1OCC2(CCN(c3cnc(Sc4ccnc(N)c4Cl)c(N)n3)CC2)C1N", "STUDY_TARGET": "PDC KRAS tumor spheroids with HUVEC/MSC, viability", "GROUP_LABEL": "active"}
{"COMPOUND": "CC(=O)OC12COC1CC(O)C1(C)C(=O)C(O)C3=C(C)C(OC(=O)C(O)C(NC(=O)OC(C)(C)C)c4ccccc4)CC(O)(C(OC(=O)c4ccccc4)C21)C3(C)C (stereo not given) + C=CC(=O)N1CCN(c2nc(OCC3CCCN3C)nc3c2CCN(c2cccc4cccc(C)c24)C3)CC1CC#N", "STUDY_TARGET": "PDC KRAS tumor spheroids with HUVEC/MSC, viability", "GROUP_LABEL": "inactive"}
{"COMPOUND": "COC(=O)c1ccc2c(C(=Nc3ccc(N(C)C(=O)CN4CCN(C)CC4)cc3)c3ccccc3)c(O)[nH]c2c1 + CC1OCC2(CCN(c3cnc(Sc4ccnc(N)c4Cl)c(N)n3)CC2)C1N", "STUDY_TARGET": "PDC KRAS tumor spheroids with HUVEC/MSC, viability", "GROUP_LABEL": "inactive"}
{"COMPOUND": "CC(C)NCC(C(=O)N1CCN(c2ncnc3c2C(C)CC3O)CC1)c1ccc(Cl)cc1 (stereo not given) + CC1OCC2(CCN(c3cnc(Sc4ccnc(N)c4Cl)c(N)n3)CC2)C1N", "STUDY_TARGET": "PDC KRAS tumor spheroids with HUVEC/MSC, viability", "GROUP_LABEL": "inactive"}

Could you now look at the following compound, please?
Q: Which outcome was entered for the compound CCN1CCN(Cc2ccc(Nc3ncc(F)c(-c4cc(F)c5nc(C)n(C(C)C)c5c4)n3)nc2)CC1 + C=CC(=O)N1CCN(c2nc(OCC3CCCN3C)nc3c2CCN(c2cccc4cccc(C)c24)C3)CC1CC#N in this test?
A: active

----------
Here the recorded viability, T/C is given for each entry.
system: PDC KRAS tumor spheroids with HUVEC/MSC, viability; test: Anticancer human tumor 349418-098-R-PDC cell line growth inhibition [KRAS2]; conditions: second compound 0.1 µM; first compound 0.1 µM; stronger effect = lower value;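 note: spheroids exposed to compounds for seven days before readout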

Example entries and their recorded answers appear below.
{"COMPOUND": "CC1COCCN1c1cc(-c2ccnn2C)c2ccnc(-c3ccn[nH]3)c2n1 (stereo unspecified) + CC1OCC2(CCN(c3cnc(Sc4ccnc(N)c4Cl)c(N)n3)CC2)C1N", "MEASURED_ENDPOINT": "viability, T/C", "RESULT": "9.73%"}
{"COMPOUND": "COC(=O)c1ccc2c(C(=Nc3ccc(N(C)C(=O)CN4CCN(C)CC4)cc3)c3ccccc3)c(O)[nH]c2c1 + CC1OCC2(CCN(c3cnc(Sc4ccnc(N)c4Cl)c(N)n3)CC2)C1N", "MEASURED_ENDPOINT": "viability, T/C", "RESULT": "104%"}
{"COMPOUND": "CC(C)NCC(C(=O)N1CCN(c2ncnc3c2C(C)CC3O)CC1)c1ccc(Cl)cc1 (stereo unspecified) + C=CC(=O)N1CCN(c2nc(=O)n(-c3c(C)ccnc3C(C)C)c3nc(-c4c(O)cccc4F)c(F)cc23)C(C)C1", "MEASURED_ENDPOINT": "viability, T/C", "RESULT": "79.6%"}
{"COMPOUND": "CC1OCC2(CCN(c3cnc(Sc4ccnc(N)c4Cl)c(N)n3)CC2)C1N (stereo unspecified) + COc1cc2nc(C)nc(NC(C)c3cc(N)cc(C(F)(F)F)c3)c2cc1OC1CCOC1", "MEASURED_ENDPOINT": "viability, T/C", "RESULT": "77.2%"}
{"COMPOUND": "CCNC(=O)CC1N=C(c2ccc(Cl)cc2)c2cc(OC)ccc2-n2c(C)nnc21 (stereo unspecified) + CC1OCC2(CCN(c3cnc(Sc4ccnc(N)c4Cl)c(N)n3)CC2)C1N", "MEASURED_ENDPOINT": "viability, T/C", "RESULT": "50.3%"}

Q: Hello, I am looking for reported viability, T/C with PDC KRAS tumor spheroids with HUVEC/MSC, viability for CC1OCC2(CCN(c3cnc(Sc4ccnc(N)c4Cl)c(N)n3)CC2)C1N (stereo unspecified) + CNCc1ccccc1-c1csc(C(C)Nc2nc(C)nc3cc(OC)c(OC)cc23)c1 . Could you help?
A: 98.9%

Q: Same again, this time with CCN1CCN(Cc2ccc(Nc3ncc(F)c(-c4cc(F)c5nc(C)n(C(C)C)c5c4)n3)nc2)CC1 + COc1cc2nc(C)nc(NC(C)c3cc(N)cc(C(F)(F)F)c3)c2cc1OC1CCOC1
A: 20.2%

Q: Same again, this time with CC1COCCN1c1cc(-c2ccnn2C)c2ccnc(-c3ccn[nH]3)c2n1 (stereo unspecified) + C=CC(=O)N1CCN(c2nc(=O)n(-c3c(C)ccnc3C(C)C)c3nc(-c4c(O)cccc4F)c(F)cc23)C(C)C1
A: 9.21%

----------
test system: PDC KRAS tumor spheroids with HUVEC/MSC, viability; assay: Anticancer human tumor 349418-098-R-PDC cell line growth inhibition [KRAS2]; settings: second compound 3.16 µM; first compound 0.01 µM; active means viability on the fitted dose curve at most 10% of control; inactive means the rest;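 note: spheroids exposed to compounds for seven days before readout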
Field 'call' accepts true = active, false = inactive

{"COMPOUND": "CC(=O)Nc1cccc(-n2c(=O)n(C3CC3)c(=O)c3c(Nc4ccc(I)cc4F)n(C)c(=O)c(C)c32)c1 + CNCc1ccccc1-c1csc(C(C)Nc2nc(C)nc3cc(OC)c(OC)cc23)c1", "GROUP_LABEL": "true"}
{"COMPOUND": "CN(C)C/C=C/C(=O)Nc1cc2c(Nc3ccc(F)c(Cl)c3)ncnc2cc1O[C@H]1CCOC1 + C=CC(=O)N1CCN(c2nc(OCC3CCCN3C)nc3c2CCN(c2cccc4cccc(C)c24)C3)CC1CC#N", "GROUP_LABEL": "true"}
{"COMPOUND": "CC1COCCN1c1cc(-c2ccnn2C)c2ccnc(-c3ccn[nH]3)c2n1 (stereo not given) + COc1cc2nc(C)nc(NC(C)c3cc(N)cc(C(F)(F)F)c3)c2cc1OC1CCOC1", "GROUP_LABEL": "false"}
{"COMPOUND": "CC(C)n1nc(-c2ccc3oc(N)nc3c2)c2c(N)ncnc21 + C=CC(=O)N1CCN(c2nc(=O)n(-c3c(C)ccnc3C(C)C)c3nc(-c4c(O)cccc4F)c(F)cc23)C(C)C1", "GROUP_LABEL": "true"}

Could you now look at the following compound, please?
Q: Which outcome was entered for the compound CC(=O)OC12COC1CC(O)C1(C)C(=O)C(O)C3=C(C)C(OC(=O)C(O)C(NC(=O)OC(C)(C)C)c4ccccc4)CC(O)(C(OC(=O)c4ccccc4)C21)C3(C)C (stereo not given) + C=CC(=O)N1CCN(c2nc(=O)n(-c3c(C)ccnc3C(C)C)c3nc(-c4c(O)cccc4F)c(F)cc23)C(C)C1 in this test?
A: false

----------
tested on: PDC KRAS tumor spheroids with HUVEC/MSC, viability; experiment: Anticancer human tumor 349418-098-R-PDC cell line growth inhibition [KRAS2]; conditions: second compound 0.0316 µM; first compound 10 µM; active = viability on the fitted dose curve at most 10% of control; inactive = the rest;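 note: spheroids exposed to compounds for seven days before readout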
Field 'call' accepts active, inactive

{"COMPOUND": "O=C(c1cc(Cc2n[nH]c(=O)c3ccccc23)ccc1F)N1CCN(C(=O)C2CC2)CC1 + C=CC(=O)N1CCN(c2nc(OCC3CCCN3C)nc3c2CCN(c2cccc4cccc(C)c24)C3)CC1CC#N", "GROUP_LABEL": "inactive"}
{"COMPOUND": "Cn1nccc1Nc1nccc(-c2cc3c(s2)C(C)(C)N(CCN2CCOCC2)C3=O)n1 + C=CC(=O)N1CCN(c2nc(OCC3CCCN3C)nc3c2CCN(c2cccc4cccc(C)c24)C3)CC1CC#N", "GROUP_LABEL": "active"}

Q: Which outcome was entered for the compound CC(C)NCC(C(=O)N1CCN(c2ncnc3c2C(C)CC3O)CC1)c1ccc(Cl)cc1 (centres undefined) + C=CC(=O)N1CCN(c2nc(OCC3CCCN3C)nc3c2CCN(c2cccc4cccc(C)c24)C3)CC1CC#N in this test?
A: active

Q: Same again, this time with COC(=O)c1ccc2c(C(=Nc3ccc(N(C)C(=O)CN4CCN(C)CC4)cc3)c3ccccc3)c(O)[nH]c2c1 + C=CC(=O)N1CCN(c2nc(OCC3CCCN3C)nc3c2CCN(c2cccc4cccc(C)c24)C3)CC1CC#N
A: inactive

Q: Same again, this time with COc1cc2nccc(Oc3ccc(NC(=O)C4(C(=O)Nc5ccc(F)cc5)CC4)cc3)c2cc1OC + C=CC(=O)N1CCN(c2nc(OCC3CCCN3C)nc3c2CCN(c2cccc4cccc(C)c24)C3)CC1CC#N
A: inactive

Q: Same again, this time with CC1(C)CCC(CN2CCN(c3ccc(C(=O)NS(=O)(=O)c4ccc(NCC5CCOCC5)c([N+](=O)[O-])c4)c(Oc4cnc5[nH]ccc5c4)c3)CC2)=C(c2ccc(Cl)cc2)C1 + C=CC(=O)N1CCN(c2nc(OCC3CCCN3C)nc3c2CCN(c2cccc4cccc(C)c24)C3)CC1CC#N
A: active

Q: Same again, this time with CC1OCC2(CCN(c3cnc(Sc4ccnc(N)c4Cl)c(N)n3)CC2)C1N (centres undefined) + C=CC(=O)N1CCN(c2nc(OCC3CCCN3C)nc3c2CCN(c2cccc4cccc(C)c24)C3)CC1CC#N
A: inactive

Q: Same again, this time with COc1cc(Nc2ncc3c(n2)-c2ccc(Cl)cc2C(c2c(F)cccc2OC)=NC3)ccc1C(=O)O + C=CC(=O)N1CCN(c2nc(OCC3CCCN3C)nc3c2CCN(c2cccc4cccc(C)c24)C3)CC1CC#N
A: inactive

Q: Same again, this time with CCNC(=O)CC1N=C(c2ccc(Cl)cc2)c2cc(OC)ccc2-n2c(C)nnc21 (centres undefined) + C=CC(=O)N1CCN(c2nc(OCC3CCCN3C)nc3c2CCN(c2cccc4cccc(C)c24)C3)CC1CC#N
A: active
